Biological target: Organic anion transporter 3 (OAT3) (Rattus norvegicus, UniProt Q9R1U7)
Sequence (Q9R1U7 whole entry): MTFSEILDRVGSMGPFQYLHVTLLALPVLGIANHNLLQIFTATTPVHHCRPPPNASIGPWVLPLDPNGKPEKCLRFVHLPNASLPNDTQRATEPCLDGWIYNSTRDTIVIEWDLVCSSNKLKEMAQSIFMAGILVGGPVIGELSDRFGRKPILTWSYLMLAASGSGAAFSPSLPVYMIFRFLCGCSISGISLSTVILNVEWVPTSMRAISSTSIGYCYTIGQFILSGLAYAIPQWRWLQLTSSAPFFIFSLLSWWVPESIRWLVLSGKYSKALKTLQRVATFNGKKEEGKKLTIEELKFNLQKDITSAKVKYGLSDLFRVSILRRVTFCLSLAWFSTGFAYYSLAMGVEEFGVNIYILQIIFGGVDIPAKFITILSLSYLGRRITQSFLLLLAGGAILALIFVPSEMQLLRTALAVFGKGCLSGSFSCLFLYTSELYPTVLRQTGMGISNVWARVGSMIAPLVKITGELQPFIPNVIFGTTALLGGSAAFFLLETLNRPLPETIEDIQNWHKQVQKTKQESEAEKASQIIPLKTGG
Test: TP_TRANSPORTER: inhibition of Homovanillic acid uptake (HVA: 0.2 uM, PCG: 1000 uM) in Xenopus laevis oocytes
Format: functional, cell-based, Oocyte
Parameters: scale not given: the % may be the effect or the level left
Conditions: Xenopus laevis oocytes (Organic anion transporter 3), probe Homovanillic acid (HVA), read-out: Activity
result type: activity at 1000 µM (%)
Kindly answer with a numeric value in %, unit omitted.

[ask] activity at 1000 µM lookup needed for CC1(C)S[C@@H]2[C@H](NC(=O)Cc3ccccc3)C(=O)N2[C@H]1C(=O)O , thanks.
[reply] 1.01

The values you see were collected from ChEMBL document CHEMBL2073749.
